- target: Protein smoothened (Homo sapiens, UniProt Q99835)
- Sequence (Q99835 whole entry): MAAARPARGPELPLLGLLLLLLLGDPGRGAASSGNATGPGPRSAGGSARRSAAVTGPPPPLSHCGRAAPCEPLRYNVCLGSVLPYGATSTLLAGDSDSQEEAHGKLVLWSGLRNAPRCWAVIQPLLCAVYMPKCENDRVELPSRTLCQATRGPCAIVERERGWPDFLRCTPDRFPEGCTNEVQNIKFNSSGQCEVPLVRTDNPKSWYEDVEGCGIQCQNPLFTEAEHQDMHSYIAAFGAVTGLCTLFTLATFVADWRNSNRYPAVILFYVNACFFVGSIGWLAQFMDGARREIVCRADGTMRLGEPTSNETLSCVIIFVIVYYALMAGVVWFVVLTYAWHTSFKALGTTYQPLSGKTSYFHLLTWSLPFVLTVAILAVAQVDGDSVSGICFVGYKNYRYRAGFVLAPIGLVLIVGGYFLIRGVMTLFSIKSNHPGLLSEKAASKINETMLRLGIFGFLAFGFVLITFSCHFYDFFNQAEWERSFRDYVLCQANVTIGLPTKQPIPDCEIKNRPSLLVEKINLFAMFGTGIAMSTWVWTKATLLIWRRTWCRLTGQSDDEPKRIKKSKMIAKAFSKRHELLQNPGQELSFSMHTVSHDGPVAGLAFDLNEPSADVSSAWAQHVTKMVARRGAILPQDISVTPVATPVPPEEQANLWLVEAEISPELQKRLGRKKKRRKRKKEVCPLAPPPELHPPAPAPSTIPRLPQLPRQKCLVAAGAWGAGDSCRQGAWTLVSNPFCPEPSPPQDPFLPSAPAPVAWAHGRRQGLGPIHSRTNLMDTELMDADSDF
- assay notes: Inhibition of SMO in human PC9-OR cells assessed as reduction in GLI1 expression at antiproliferative IC50 measured after 72 hrs by Western blot analysis
- Format: functional, cell-based
Activity calls are given as the source filed them. The calls are words filed in the database; no cut-off is given here.
assay readout: inhibition

O=C(CN1C(=O)/C(=N\NC(=O)c2cc(Br)ccc2O)c2c(Br)cccc21)Nc1ccc([N+](=O)[O-])cc1; Active
Cc1ccc(NC(=O)CN2C(=O)/C(=N\NC(=O)c3cc(Br)ccc3O)c3ccccc32)cc1; Active
Cc1ccc(NC(=O)CN2C(=O)/C(=N\NC(=O)c3cc(Br)ccc3O)c3ccc(Br)cc32)cc1; Active
Cc1ccc(NC(=O)CN2C(=O)/C(=N\NC(=O)c3cc(Br)ccc3O)c3ccc(Cl)cc32)cc1; Active
